- Species: Rattus norvegicus
- ASSAY_NOTES: DrugMatrix - Regimen: Daily Repeat
- Format: toxicity, organism-based, Sprague-Dawley
- Design: regimen Daily Repeat, gender Male, age 6-8 weeks
- CONDITION_DETAILS: in vivo, po, 0 mg/kg, 120 h, tissue Plasma, route oral GAVAGE, dose level Control, time 5 day, vehicle 100 % WATER
ASSAY_METRIC: ALBUMIN (G/DL)
// units = G/DL; emit number, no label

line_notation=CCC1(c2ccccc2)C(=O)NC(=O)NC1=O test_value=3.97
line_notation=CC(Cl)(Cl)Cl test_value=4.07
line_notation=C1CCN2C[C@@H]3C[C@@H](CN4CCCC[C@@H]34)[C@H]2C1 test_value=4.07
line_notation=C[N+](C)(C)CCOC(N)=O.[Cl-] test_value=4.07

Any idea what ALBUMIN was measured for `Cc1cc(C(C)(C)C)c(O)c(C)c1CC1=NCCN1` ?
4.33

Another compound: `CN1C(=O)OC(C)(C)C1=O`
3.73

---

- Species on record: Rattus norvegicus
- ASSAY_NOTES: DrugMatrix - Regimen: Daily Repeat
- Format: toxicity, organism-based, Sprague-Dawley
- Set-up: regimen Daily Repeat, gender Male, age 6-8 weeks
- CONDITION_DETAILS: in vivo, po, 0 mg/kg, 120 h, tissue Blood, route oral GAVAGE, dose level Control, time 5 day, vehicle 100 % WATER
Listing of entries alongside the reported MONOCYTE.
Write the value in % as a bare number.

Guide cases for MONOCYTE, answers given:
line_notation=Cc1cc(C(C)(C)C)c(O)c(C)c1CC1=NCCN1 assay_metric=MONOCYTE unit_of_measure=% test_value=2.17
line_notation=CCC1(c2ccccc2)C(=O)NC(=O)NC1=O assay_metric=MONOCYTE unit_of_measure=% test_value=0.67

For the next question, use this molecule.
Field request: MONOCYTE | item: `Cc1cn([C@H]2C=C[C@@H](CO)O2)c(=O)[nH]c1=O`
1

---

- Species on record: Rattus norvegicus
- ASSAY_NOTES: DrugMatrix - Regimen: Daily Repeat
- Format: toxicity, organism-based, Sprague-Dawley
- Parameters: regimen Daily Repeat, gender Male, age 6-8 weeks
- CONDITION_DETAILS: in vivo, po, 0 mg/kg, 72 h, tissue Plasma, route oral GAVAGE, dose level Control, time 3 day, […]
ASSAY_METRIC: CREATININE (mg/dL)
The figure you give is taken to be in mg/dL; do not add the unit.

Some compounds with recorded CREATININE:
compound="Oc1ncnc2[nH]ncc12 [ALLOPURINOL]" unit_of_measure=mg/dL test_value=0.21
compound="COC(=O)Nc1nc2ccc(C(=O)c3ccccc3)cc2[nH]1 [MEBENDAZOLE]" unit_of_measure=mg/dL test_value=0.16
compound="O=C(Nc1ccc(Cl)c(Cl)c1)c1cc(Cl)cc(Cl)c1O [3,3',4',5-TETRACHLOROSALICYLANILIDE]" unit_of_measure=mg/dL test_value=0.17
compound="CCOC(=O)C1=C(C)NC(C)=C(C(=O)OCC)C1c1ccccc1/C=C/C(=O)OC(C)(C)C [LACIDIPINE]" unit_of_measure=mg/dL test_value=0.16

Please look up its CREATININE: CCC(C)(C)C(=O)O[C@H]1C[C@@H](C)C=C2C=C[C@H](C)[C@H](CC[C@@H]3C[C@@H](O)CC(=O)O3)[C@H]21 [SIMVASTATIN]
0.16

Again, but for Cc1cccc(C)c1NC(=O)C(C)N (centres undefined) [TOCAINIDE]
0.18

What do you have for CC#C[C@]1(O)CC[C@H]2[C@@H]3CCC4=CC(=O)CCC4=C3[C@@H](c3ccc(N(C)C)cc3)C[C@@]21C [MIFEPRISTONE] ?
0.16

Same read-out for `CO[C@H]1O[C@@H]2O[C@@]3(C)CC[C@H]4[C@H](C)CC[C@@H]([C@H]1C)[C@@]24OO3` ?
0.2

And then CC(C)(c1ccc(O)cc1)c1ccc(O)cc1 [BISPHENOL A] , what is it?
0.19

---

- Species on record: Rattus norvegicus
- ASSAY_NOTES: DrugMatrix - Regimen: Daily Repeat
- Assay type: toxicity, organism-based, Sprague-Dawley
- Design: regimen Daily Repeat, gender Male, age 6-8 weeks
- CONDITION_DETAILS: in vivo, po, 0 mg/kg, 72 h, tissue Plasma, route oral GAVAGE, dose level Control, time 3 day, […]
ASSAY_METRIC: LIPASE (u/L)
Enter your answer as a number in u/L; do not include the unit.

Sample answers from the record:
molecule=CO[C@H]1O[C@@H]2O[C@@]3(C)CC[C@H]4[C@H](C)CC[C@@H]([C@H]1C)[C@@]24OO3 unit_of_measure=u/L test_value=9.5
molecule="CC(C)(c1ccc(O)cc1)c1ccc(O)cc1 [BISPHENOL A]" unit_of_measure=u/L test_value=9.83
molecule="CCOC(=O)C1=C(C)NC(C)=C(C(=O)OCC)C1c1ccccc1/C=C/C(=O)OC(C)(C)C [LACIDIPINE]" unit_of_measure=u/L test_value=9.67
molecule="O=C(O)COC(=O)Cc1ccccc1Nc1c(Cl)cccc1Cl [ACECLOFENAC]" unit_of_measure=u/L test_value=9.5
molecule="c1ccc2c(c1)Nc1ccccc1S2 [PHENOTHIAZINE]" unit_of_measure=u/L test_value=10
molecule="Oc1ncnc2[nH]ncc12 [ALLOPURINOL]" unit_of_measure=u/L test_value=10
molecule="O=C(Nc1ccc(Cl)c(Cl)c1)c1cc(Cl)cc(Cl)c1O [3,3',4',5-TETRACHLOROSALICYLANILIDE]" unit_of_measure=u/L test_value=10.67
molecule="Cc1cccc(C)c1NC(=O)C(C)N (configuration not stated) [TOCAINIDE]" unit_of_measure=u/L test_value=11.83
molecule="CS(=O)(=O)c1ccc(C2=C(c3ccccc3)C(=O)OC2)cc1 [ROFECOXIB]" unit_of_measure=u/L test_value=10
molecule="COC(=O)Nc1nc2ccc(C(=O)c3ccccc3)cc2[nH]1 [MEBENDAZOLE]" unit_of_measure=u/L test_value=9.5

Could you tell me which LIPASE is on file for CCC(C)(C)C(=O)O[C@H]1C[C@@H](C)C=C2C=C[C@H](C)[C@H](CC[C@@H]3C[C@@H](O)CC(=O)O3)[C@H]21 [SIMVASTATIN] ?
16.67

Continue with CC#C[C@]1(O)CC[C@H]2[C@@H]3CCC4=CC(=O)CCC4=C3[C@@H](c3ccc(N(C)C)cc3)C[C@@]21C [MIFEPRISTONE]
16.67

---

// reported BLOOD UREA NITROGEN per item
- Organism: Rattus norvegicus
- ASSAY_NOTES: DrugMatrix - Regimen: Daily Repeat
- Assay type: toxicity, organism-based, Sprague-Dawley
- Parameters: regimen Daily Repeat, gender Male, age 6-8 weeks
- CONDITION_DETAILS: in vivo, po, 0 mg/kg, 120 h, tissue Plasma, route oral GAVAGE, dose level Control, time 5 day, vehicle .5 % CMC
Respond with a number, then the unit of measure.

Solved entries:
molecule="CN(C)CCOC(c1ccccc1)c1ccccc1.Cn1c(=O)c2[nH]c(Cl)nc2n(C)c1=O [DIMENHYDRINATE]" assay_metric="BLOOD UREA NITROGEN" test_value="17.67 mg/dL"
molecule="NC(=O)NC(=O)Cc1ccccc1 [PHENACEMIDE]" assay_metric="BLOOD UREA NITROGEN" test_value="14 mg/dL"
molecule=CC(=O)Nc1ccc2c(c1)Cc1ccccc1-2 assay_metric="BLOOD UREA NITROGEN" test_value="18 mg/dL"
molecule=CCN1CCN(c2cc3c(cc2F)c(=O)c(C(=O)O)cn3C2CC2)CC1 assay_metric="BLOOD UREA NITROGEN" test_value="15 mg/dL"
molecule=Cc1cc2c(s1)Nc1ccccc1N=C2N1CCN(C)CC1 assay_metric="BLOOD UREA NITROGEN" test_value="20.5 mg/dL"

Given the entry `NC(=O)CN1CCCC1=O` , report its measured BLOOD UREA NITROGEN.
17 mg/dL

Item: `CC(C)Cc1ccc([C@H](C)C(=O)O)cc1`
16.67 mg/dL

---

- Species: Rattus norvegicus
- ASSAY_NOTES: DrugMatrix - Regimen: Daily Repeat
- Type: toxicity, organism-based, Sprague-Dawley
- Design: regimen Daily Repeat, gender Male, age 6-8 weeks
- CONDITION_DETAILS: in vivo, po, 0 mg/kg, 120 h, tissue Blood, route oral GAVAGE, dose level Control, time 5 day, […]
Entries and their MEAN CORPUSCULAR HEMOGLOBIN
Field: numeric (pg). Do not append units.

molecule=CCOC(=O)C1=C(C)NC(C)=C(C(=O)OCC)C1c1ccccc1/C=C/C(=O)OC(C)(C)C test_value=23.83
molecule="O=C(Nc1ccc(Cl)c(Cl)c1)c1cc(Cl)cc(Cl)c1O [3,3',4',5-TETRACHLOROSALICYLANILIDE]" test_value=24.42
molecule=CC#C[C@]1(O)CC[C@H]2[C@@H]3CCC4=CC(=O)CCC4=C3[C@@H](c3ccc(N(C)C)cc3)C[C@@]21C test_value=24.32
molecule=CS(=O)(=O)c1ccc(C2=C(c3ccccc3)C(=O)OC2)cc1 test_value=24.5
molecule=CO[C@H]1O[C@@H]2O[C@@]3(C)CC[C@H]4[C@H](C)CC[C@@H]([C@H]1C)[C@@]24OO3 test_value=22.73

# MEAN CORPUSCULAR HEMOGLOBIN lookup, item `O=C(O)COC(=O)Cc1ccccc1Nc1c(Cl)cccc1Cl`
24.13

What do you get for `Oc1ncnc2[nH]ncc12` ?
24.42

Same thing, different molecule: `COC(=O)Nc1nc2ccc(C(=O)c3ccccc3)cc2[nH]1`
24.13

Lookup COc1ccccc1OCCNCC(O)COc1cccc2[nH]c3ccccc3c12 (centres undefined)
24.13
